All figures here come from PubChem BioAssay.

testProtocol: reversal of MRP1-mediated doxorubicin resistance, pilot screen, H69AR cells, doxorubicin co-treatment (AID 601)
conditionSet: H69AR cells + 2 uM doxorubicin, CellTiter-Glo, 72 h; at 10 µM; stronger effect = higher value
Record form. Attribute: differential viability (reversal). Fill in for each entry.
Answers are plain numbers, in %.

CC(=O)[C@H]1CC[C@H]2[C@@H]3CCC4=CC(=O)CC[C@]4(C)[C@H]3CC[C@]12C | -3.29
O=C(CSc1nnc(COc2ccc(Cl)cc2)o1)OC1CCCCC1 | 6.06
Cn1c(=O)c(NC(=O)c2ccccc2)c2n(c1=S)CCCCC2 | -6.87
Cc1cccc(NC(=O)c2cnc3sccn3c2=O)n1 | 8.25
C=CCn1c(SCC(=O)NCC2CCCO2)nnc1C1CCCCC1 (stereo not given) | 9.64

Return reported differential viability (reversal) values for all items listed beneath this line.
1. c1coc(CN(Cc2cccs2)Cc2nnnn2C2CCCCC2)c1
2. N#CC1=C(N)N(c2ccccc2)C(c2ccccc2)C1(C#N)C#N (stereo not given)
3. O=C(O)c1cc(O)c2c(c1)C(=O)c1cccc(O)c1C2=O

[-4.73, 1.28, -14.5]

Return reported differential viability (reversal) values for all items listed beneath this line.
1. CC(=O)[C@H]1[C@H](C#N)C[C@H]2[C@@H]3CC=C4C[C@@H](O)CC[C@]4(C)[C@H]3CC[C@@]21C
2. CCOc1ccc(C2C(C(=O)OC)=CN(CCOC)C=C2C(=O)OC)cc1

1. 1.78
2. -1.94

====

testProtocol: HUVEC growth inhibition – cell-based, human, primary screen (AID 575);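 note: 100% = median of untreated cell wells with 0.1% DMSO on each plate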
conditionSet: HUVEC proliferation, CellTiter-Glo luminescence, 72 h; at 10 µM; stronger effect = lower value
measurementLabel: viability (%)
Give bare numbers, in %.

These recorded examples may help you get a feel for the data.
CCn1c(SCC(=O)Nc2cc(C)on2)nc2sc3c(c2c1=O)CCCC3 | 84.5
O=[N+]([O-])c1cccc2cn[nH]c12 | 88.6
COC(=O)Cn1c(C)nc2c(sc3nc(C)cc(C)c32)c1=O | 105

Return reported viability values for all items listed beneath this line.
1. Cc1ccc2c(CC(=O)OCc3csc(C)n3)coc2c1
2. COc1cc(NS(=O)(=O)c2ccc(N)cc2)ncn1
3. Cc1sc2nc(SCc3nc4ccccc4[nH]3)n(Cc3ccco3)c(=O)c2c1C
4. COc1ccc(CN2C(=O)[C@@H]3C(c4ccc(F)cc4)=NO[C@@H]3C2=O)cc1
5. CC(C)Sc1nc(N2CCCC2)c2c(c1C#N)CC(C)(C)OC2
6. C=C(C)C1Cc2c(C)nn(-c3nc(C)cc(C)n3)c2C1 (stereo not drawn)

90.3
75
91.7
114
71.2
71.7

Return reported viability values for all items listed beneath this line.
1. Cc1cc(=O)oc2cc(OCC(=O)OCC(=O)N3CCc4ccccc43)ccc12
2. COc1ccccc1Cn1c(-c2ccco2)nc2nc3ccccc3nc21
3. Cc1nc2ccc(S(=O)(=O)NCC(=O)N3CCCCC3)cc2s1
4. Cc1nc2ccccc2nc1OCC(=O)Nc1cc(C(F)(F)F)ccc1N1CCOCC1
5. COc1cc2c(OC)cccc2cc1C(=O)O
6. Cc1ccc(CSc2nc3c(c(=O)[nH]2)C(c2ccncc2)C2=C(CCCC2=O)N3)cc1 (stereo not drawn)

101
52.5
100
93
95
72.5

Return reported viability values for all items listed beneath this line.
1. CS(=O)(=O)N(CC(=O)NC1CC1)c1cccc(F)c1
2. CCn1c(C(Cc2ccccc2)NC(=O)COC)nc2ccccc21 (stereo not drawn)
3. Cn1c(=O)[nH]c(=O)c2c1nc(Br)n2CCCSc1nc2ccccc2o1
4. Cc1ccc2cc(C(c3nnnn3C3CCCC3)N3CCN(c4ccc(F)cc4)CC3)c(=O)[nH]c2c1 (stereo not drawn)
5. CCOC(=O)C1=C(N)OC2=C(C(=O)CC(C)(C)C2)C1c1ccco1 (stereo not drawn)
6. Nc1c(C(=O)NCCN2CCOCC2)c2nc3ccccc3nc2n1-c1ccc2c(c1)OCO2
7. O=C(NCc1cccnc1)/C(=N\O)c1ccccc1

1: 86.5; 2: 102; 3: 36.2; 4: 101; 5: 97.3; 6: 51.9; 7: 111

Report viability for Cc1c(NC(=O)c2cnn3c2NC(c2ccco2)CC3C(F)(F)F)c(=O)n(-c2ccccc2)n1C (stereo not drawn) please.
81.5

====

testProtocol: growth suppression of yeast trafficking mutant, preliminary HTS, modulators of trafficking downstream of Golgi apparatus project, 1536-format plate, OD 615 nm (AID 637)
conditionSet: yeast transport mutant growth, absorbance 615 nm, 18 h; stronger effect = higher value
measurementLabel: inhibition (%)
One number for each entry, in %.

Return reported inhibition values for all items listed beneath this line.
1. CCCCOc1ccc(C(=O)Nc2ccc(N3CCN(C(=O)C(C)C)CC3)cc2)cc1
2. COc1ccc(OC)c(NC(=O)CCNS(=O)(=O)c2cccs2)c1
3. CC1c2nc3ccccc3n2C(CC(=O)NCc2ccccn2)C(=O)N1Cc1ccccc1 (stereo not given)
4. O=C(COC(=O)c1cccc(S(=O)(=O)N2CCc3ccccc32)c1)NC1CCS(=O)(=O)C1 (stereo not given)

[2.22, 23.3, 1.59, -7.64]

Report inhibition for Cc1ccc2c(c1)CCCN2C(=O)C1CCCO1 (stereo not given) please.
-6.83

====

testProtocol: SK-BR-3 cell growth inhibitors, pilot screen, 24 h, human (AID 572);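 note: compound exposure lasted between 18 and 24 h rather than exactly 24 h; 100% = carrier-treated control wells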
conditionSet: SK-BR-3 viability, CellTiter-Glo luminescence, at 10 µM, stronger effect = lower value
Record form. Attribute: viability. Fill in for each entry.
Answers are plain numbers, in %.

These recorded examples may help you get a feel for the data.
Cc1[nH]nc(N=CC2=C(O)CC(C)(C)CC2=O)c1-c1ccccc1 | 85
C/C(=C\C(=O)c1ccc(F)cc1)Nc1ccc(N2CCOCC2)cc1 | 89.5
C/C(=C\C(=O)O)CC(=O)O | 100

Return reported viability values for all items listed beneath this line.
1. O=C(O)CCNC(=O)c1ccccc1
2. CCOC(=O)c1cccc(NC(=O)C2CCN(S(=O)(=O)c3cccs3)CC2)c1

1: 84; 2: 75.5

Return reported viability values for all items listed beneath this line.
1. O=C(c1cccc2c1C(=O)N(Cc1cccnc1)C2)N1CCN(c2ccccc2)CC1
2. CCN1CCN(c2nc3c(c(=O)n(C)c(=O)n3C)n2Cc2cccc3ccccc23)CC1
3. NC(=O)c1cc(-c2ccccc2)nc(N2CCOCC2)n1
4. Clc1ccc(OCc2nnc(SCCN3CCCCC3)n2Cc2ccco2)cc1
5. CCCCN(CCCNC(=O)C1CCN(S(=O)(=O)CC)CC1)c1ccccc1
6. O=C(Cc1nc2ccccc2s1)c1ccc(O)cc1O

[127, 87, 102, 90, 87, 100]

Return reported viability values for all items listed beneath this line.
1. C/C(=N\O)C(=O)C(CN1CCCCC1)CN1CCCCC1
2. CC(=O)Oc1ccc(C(c2ccc(OC(C)=O)cc2)c2ccccn2)cc1
3. CCc1cccc(NC(=O)CN(C)S(=O)(=O)c2cccc3nsnc23)c1

116
91
92

====

Record form. Attribute: inhibition. Fill in for each entry.
testProtocol: growth suppression of yeast trafficking mutant, preliminary HTS, modulators of trafficking downstream of Golgi apparatus project, 1536-format plate, OD 615 nm (AID 637)
conditionSet: yeast transport mutant growth, absorbance 615 nm, 18 h; stronger effect = higher value
Give bare numbers, in %.

These recorded examples may help you get a feel for the data.
CCN(CC(=O)Nc1ccc2c(c1)OCCO2)Cc1cc(=O)oc2cc(C)c(C)cc12 | 3.09
CCOC(=O)N1CCN(C(=O)COc2cc(=O)n(C)c3ccccc23)CC1 | 15.9
CCn1cc(/C=C(/C#N)S(=O)(=O)c2ccccc2)cn1 | -4.6
Cc1c(NC(=O)C(C)OC(=O)c2cc3c4ccccc4n(C)c3s2)c(=O)n(-c2ccccc2)n1C (stereo unspecified) | 1.13
Cc1cc(=O)oc(C)c1C(=O)O | 9.34

Return reported inhibition values for all items listed beneath this line.
1. CN(C)CCCC1(c2ccc(F)cc2)OCc2cc(C#N)ccc21 (stereo unspecified)
2. CCOC(=O)C1CCN(Cc2ccc(C(=O)OC)cc2)CC1
3. Cc1ccc(/C=c2\s/c(=C(/C#N)C(=O)N3CCCC3)n(Cc3ccco3)c2=O)s1
4. O=C(NC1CCCCCCC1)C1CCN(c2nc3ccccc3o2)CC1
5. CCOC(=O)N1CCN(C(=O)c2ccc(N3C(=O)CCC3=O)cc2)CC1
6. O=C(Nc1ncc2c(n1)CC(c1ccccc1)CC2=O)c1ccco1 (stereo unspecified)

1. -2.5
2. -1.8
3. 1.9
4. 1.09
5. -9.83
6. -0.16

====

Record form. Attribute: viability. Fill in for each entry.
testProtocol: growth inhibitors of H69AR lung tumor, primary screen, human, duplicate replicates (AID 580);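 note: 100% = mean luminescence of untreated wells and 0% = no signal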
conditionSet: H69AR lung tumor cells viability, ATP luminescence, 72 h; at 10 µM; stronger effect = lower value
Activity calls are given as the source filed them.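 Rule for the calls: active = viability at or under a set limit in both replicates, limit being median viability minus 3 SD (cut at about 48% in these data, passing the limit was not always enough); inconclusive = at or under the limit in just one replicate; inactive = at or above the limit in both replicates.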

These recorded examples may help you get a feel for the data.
Cc1sc2ncnc(SCC(=O)N3CCCC3)c2c1C | 93% (inactive)
O=C(OCC(=O)c1ccccc1Br)c1ccccn1 | 86.8% (inactive)
CCc1c(C(=O)Nc2ncn(Cc3cccc(C)c3)n2)csc1C | 85.6% (inactive)
COC(=O)c1[nH]c(C)c(/C(O)=C2\C(=O)C(=O)N(CCN(C)C)C2c2ccccc2OC)c1C (stereo not given) | 84.3% (inactive)
CC(=O)N1CN(C2CCCC2)Cc2c1sc1c2CCCC1 | 101% (inactive)

Return reported viability values for all items listed beneath this line.
1. Cc1cccn2c(=O)c3cc(C#N)c(=NC(=O)c4ccncc4)n(Cc4ccco4)c3nc12
2. Cc1ccccc1Nc1nc(N)nc(CSCc2c(C)noc2C)n1
3. O=C(c1ccc(S(=O)(=O)N2CCOCC2)cc1)N1CCc2ccccc2C1
4. CC(=O)[C@H]1[C@H](C#N)C[C@H]2[C@@H]3CC=C4C[C@@H](O)CC[C@]4(C)[C@H]3CC[C@@]21C
5. CC(=O)OCC(=O)[C@@]1(OC(C)=O)[C@@H](C)C[C@H]2[C@@H]3C[C@H](F)C4=CC(=O)C=C[C@]4(C)[C@@]3(F)[C@@H](O)C[C@@]21C

1: 67% (inactive); 2: 96.4% (inactive); 3: 91.1% (inactive); 4: 87% (inactive); 5: 94.5% (inactive)
